Target: T1, mouse PAI-1 (mouse, UniProt P22777 24-401)
T1 sequence: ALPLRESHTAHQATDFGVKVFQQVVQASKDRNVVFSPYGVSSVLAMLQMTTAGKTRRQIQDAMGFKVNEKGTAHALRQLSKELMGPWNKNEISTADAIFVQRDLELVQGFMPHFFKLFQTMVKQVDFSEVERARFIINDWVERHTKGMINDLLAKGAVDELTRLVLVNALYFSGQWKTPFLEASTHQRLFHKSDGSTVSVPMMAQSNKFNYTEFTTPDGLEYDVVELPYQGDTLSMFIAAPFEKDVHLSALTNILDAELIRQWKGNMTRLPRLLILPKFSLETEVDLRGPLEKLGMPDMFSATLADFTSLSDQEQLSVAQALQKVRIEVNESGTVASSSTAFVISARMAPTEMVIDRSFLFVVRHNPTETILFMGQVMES
Assay: cell-based or functional assay
Can you tell me IC50 chromogenic for the items I'm about to list?
Give bare numbers, in nM.

Illustrative cases are given below, each with its answer.
binder: Antibody 24, scFv (scFv, V domains shown) VH: QVQLQQSGAEVKKPGSSVKVSCKASGGTFSSYAISWVRQAPGQGLEWMGGIIPTFVTANYAQKFQGRVSITADESTSTAYMELSGLRSEDTAVYYCAREKRQWLEGHFDYWGRGTPVTVSS VL: DIQMTQSPSFLSASIGDRVTITCRASEGIYHALAWYQQKPGKAPKLLIYRASSLASGAPSRFSGSGSGTDFTLTISSLQPDDFATYYCQQYSNYPLTFGGGTKLEIK
value-unit: nM
endpoint-result: 140

binder: Antibody 19, scFv (scFv, V domains shown) VH: QVQLQQSGAEVKKPGSSVKVSCKASGGTFSSYAISWVRQAPGQGLEWMGGIIPIFDTANYAQKFQGRVTITADESTSTAYMELSGLRSEDTAVYYCARERRQWLEGHFDYWGRGTPVTVSS VL: DIRMTQSPSFLSASIGDRVTITCRASEGIYHELAWYQQKPGKAPKLLIYRASSLASGAPSRFSGSGSGTEFTLTISSLQPDDFATYYCQQYSNYPLTFGGGTKLEIK
value-unit: nM
endpoint-result: 6.4

binder: Antibody 20, scFv (scFv, V domains shown) VH: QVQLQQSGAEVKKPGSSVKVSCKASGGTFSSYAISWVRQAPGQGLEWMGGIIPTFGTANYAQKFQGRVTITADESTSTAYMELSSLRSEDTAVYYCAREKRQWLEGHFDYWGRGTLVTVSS VL: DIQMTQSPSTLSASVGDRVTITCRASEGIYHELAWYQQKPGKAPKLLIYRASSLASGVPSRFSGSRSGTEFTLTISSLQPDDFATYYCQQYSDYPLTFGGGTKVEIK
value-unit: nM
endpoint-result: 4.9

binder: Antibody 03, IgG4, not germlined (antibody, V domains shown) VH: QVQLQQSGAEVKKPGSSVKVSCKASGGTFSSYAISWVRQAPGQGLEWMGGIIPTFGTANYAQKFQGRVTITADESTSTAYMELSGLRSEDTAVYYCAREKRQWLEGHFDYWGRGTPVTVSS VL: DIQMTQSPSFLSASIGDRVTITCRASEGIYRSLAWYQQKPGKAPKLLIYKASSLASGAPSRFSGSGSGTDFTLTISGLQPDDFATYYCQQYSNYPLTFGGGTKLEIK
value-unit: nM
endpoint-result: 12.9

Now, please, on to the next binder.
Request: In one line, give reported IC50 chromogenic of the entry Antibody 17, scFv (scFv, V domains shown) VH: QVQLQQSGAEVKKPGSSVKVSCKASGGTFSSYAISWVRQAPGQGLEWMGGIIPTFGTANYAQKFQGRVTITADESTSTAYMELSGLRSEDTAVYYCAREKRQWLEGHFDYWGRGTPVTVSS VL: DIQMTQSPSFLSASIGDRVTITCRASEGIYHELAWYQQKPGKAPKLLIYRASSLASGAPSRFSGSGSGTDFTLTISSLQPDDFATYYCQQYSNYPLTFGGGTKLEIK .
Response: 26.2
